# KD per entry
target: T1, Sortilin-6His (Homo sapiens (Human), UniProt Q99523 78-755); experiment: MST on labelled sortilin-6his ectodomain; KD score: ++ <100 nM, + 100-2000 nM
T1 construct: In MST it was labelled non-covalently with RED-tris-NTA; also called soluble ectodomain of sortilin-6his; fluorescent sortilin-6his
T1 sequence (Q99523 78-755 V650M limits assumed): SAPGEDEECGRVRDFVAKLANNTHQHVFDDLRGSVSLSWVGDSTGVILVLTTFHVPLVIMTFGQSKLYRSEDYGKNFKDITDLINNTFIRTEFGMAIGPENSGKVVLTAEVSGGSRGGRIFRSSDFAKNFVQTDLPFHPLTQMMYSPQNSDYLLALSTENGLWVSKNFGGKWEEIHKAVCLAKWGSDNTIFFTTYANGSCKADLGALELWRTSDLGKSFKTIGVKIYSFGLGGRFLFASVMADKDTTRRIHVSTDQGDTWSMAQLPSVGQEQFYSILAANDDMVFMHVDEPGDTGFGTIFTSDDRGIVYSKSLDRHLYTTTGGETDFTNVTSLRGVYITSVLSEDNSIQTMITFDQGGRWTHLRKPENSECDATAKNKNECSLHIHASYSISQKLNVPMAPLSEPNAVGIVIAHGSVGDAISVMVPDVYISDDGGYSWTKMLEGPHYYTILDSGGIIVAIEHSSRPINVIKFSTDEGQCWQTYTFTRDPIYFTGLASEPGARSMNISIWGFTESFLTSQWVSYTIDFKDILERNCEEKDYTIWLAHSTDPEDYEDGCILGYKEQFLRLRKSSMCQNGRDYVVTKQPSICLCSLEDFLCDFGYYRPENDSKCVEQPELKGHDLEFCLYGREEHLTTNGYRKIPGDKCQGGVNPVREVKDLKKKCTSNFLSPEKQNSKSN
*: point of attachment. Biotin = O=C1N[C@H]2[C@H](CS[C@H]2CCCCC(=O)*)N1

# Binder, KD
records = [
    ("Biotin-GGSGGGGSGGGGSRQLL-OH (SMILES CC(C)C[C@H](NC(=O)[C@H](CC(C)C)NC(=O)[C@H](CCC(N)=O)NC(=O)[C@H](CCCNC(=N)N)NC(=O)[C@H](CO)NC(=O)CNC(=O)CNC(=O)CNC(=O)CNC(=O)[C@H](CO)NC(=O)CNC(=O)CNC(=O)CNC(=O)CNC(=O)[C@H](CO)NC(=O)CNC(=O)CNC(=O)CCCC[C@@H]1SC[C@@H]2NC(=O)N[C@@H]21)C(=O)O) [Biotin-GGSGGGGSGGGGSRQLL-OH]", "< 100 nM"),
    ("Biotin-GGSGGGGSGGGGSGGFQLL-OH (SMILES CC(C)C[C@H](NC(=O)[C@H](CC(C)C)NC(=O)[C@H](CCC(N)=O)NC(=O)[C@H](Cc1ccccc1)NC(=O)CNC(=O)CNC(=O)[C@H](CO)NC(=O)CNC(=O)CNC(=O)CNC(=O)CNC(=O)[C@H](CO)NC(=O)CNC(=O)CNC(=O)CNC(=O)CNC(=O)[C@H](CO)NC(=O)CNC(=O)CNC(=O)CCCC[C@@H]1SC[C@@H]2NC(=O)N[C@@H]21)C(=O)O) [Biotin-GGSGGGGSGGGGSGGFQLL-OH]", "100 to 2000 nM"),
    ("Biotin-RQLL-OH (SMILES CC(C)C[C@H](NC(=O)[C@H](CC(C)C)NC(=O)[C@H](CCC(N)=O)NC(=O)[C@H](CCCNC(=N)N)NC(=O)CCCC[C@@H]1SC[C@@H]2NC(=O)N[C@@H]21)C(=O)O) [Biotin-RQLL-OH]", "< 100 nM"),
    ("Biotin-GGSGGGGSGRQLL-OH (SMILES CC(C)C[C@H](NC(=O)[C@H](CC(C)C)NC(=O)[C@H](CCC(N)=O)NC(=O)[C@H](CCCNC(=N)N)NC(=O)CNC(=O)[C@H](CO)NC(=O)CNC(=O)CNC(=O)CNC(=O)CNC(=O)[C@H](CO)NC(=O)CNC(=O)CNC(=O)CCCC[C@@H]1SC[C@@H]2NC(=O)N[C@@H]21)C(=O)O) [Biotin-GGSGGGGSGRQLL-OH]", "< 100 nM"),
    ("Biotin-GGSGGGGSGGGRQLL-OH (SMILES CC(C)C[C@H](NC(=O)[C@H](CC(C)C)NC(=O)[C@H](CCC(N)=O)NC(=O)[C@H](CCCNC(=N)N)NC(=O)CNC(=O)CNC(=O)CNC(=O)[C@H](CO)NC(=O)CNC(=O)CNC(=O)CNC(=O)CNC(=O)[C@H](CO)NC(=O)CNC(=O)CNC(=O)CCCC[C@@H]1SC[C@@H]2NC(=O)N[C@@H]21)C(=O)O) [Biotin-GGSGGGGSGGGRQLL-OH]", "100 to 2000 nM"),
]
